Origin of the recorded values: patent US9120791B2

# SYSTEM: Bcl-2 protein (Homo sapiens (Human))
# MEASUREMENT NOTES: Inhibition of Bcl-2 by the fluorescence polarisation technique
# Format: binding
# EXPERIMENTAL SETUP: fluorescence polarisation test; concentration that inhibits fluorescence polarisation by 50%; read-out: IC50 (nM) Bcl-2 FP
Where a name gives a salt, the structure may show the parent alone.
The following compounds are listed with their measured IC50 values.
VALUE TYPE: IC50 (nM)

COMPOUND	OBSERVED VALUE
CC(C)n1ccc2cc(N(C(=O)c3cc(-c4cc5c(cc4C(=O)N4Cc6ccccc6C[C@H]4CN4CCOCC4)OCO5)n4ccccc34)c3ccc(O)cc3)ccc21 [Example 62, hydrochloride]	22
COCCN(C)C[C@@H]1Cc2ccccc2CN1C(=O)c1ccc(Cl)cc1-c1cc(C(=O)N(c2ccc(O)cc2)c2ccc3c(ccn3C)c2)c2n1CCCC2 [Example 108, hydrochloride]	9
O=C(c1cc(-c2cc(Cl)ccc2C(=O)N2Cc3ccccc3C[C@H]2CN2CCOCC2)n2c1CCCC2)N(c1ccc(O)cc1)c1ccccc1F [Example 115, hydrochloride]	8

====

# SYSTEM: UniProtKB P10415
# MEASUREMENT NOTES: Inhibition of Bcl-2 by the fluorescence polarisation technique
# Type: binding
# EXPERIMENTAL SETUP: fluorescence polarisation test; concentration that inhibits fluorescence polarisation by 50%; read-out: IC50 (nM) Bcl-2 FP
Counter-ions that a name gives are not always drawn.
The following molecules are listed with their measured IC50 values.
VALUE TYPE: IC50 (nM)

MOLECULE	VALUE TYPE	OBSERVED VALUE
CCn1ccc2cc(N(C(=O)c3cc(-c4cc5c(cc4C(=O)N4Cc6ccccc6C[C@H]4CN4CCOCC4)OCO5)n4ccccc34)c3ccc(O)cc3)ccc21 [Example 60, hydrochloride]	IC50	19
CCCCN(C(=O)c1cc(-c2cc3c(cc2C(=O)N2Cc4ccccc4C[C@H]2CN2CCOCC2)OCO3)n2c1CCCC2)c1ccc(O)cc1.Cl [Example 87, hydrochloride]	IC50	27
Cn1ccc2cc(N(C(=O)c3cc(-c4cc(F)ccc4C(=O)N4Cc5ccccc5C[C@H]4CN4CCOCC4)n4c3CCCC4)c3ccc(O)cc3)ccc21 [Example 24, hydrochloride]	IC50	17
O=C(c1cc(-c2cc(Cl)ccc2C(=O)N2Cc3ccccc3C[C@H]2CN2CCOCC2)n2c1CCCC2)N(c1ccc(O)cc1)c1ccsc1 [Example 85, hydrochloride]	IC50	41

====

The following molecules are listed with their measured IC50 values.
# SYSTEM: Bcl-2 protein (Homo sapiens (Human), UniProt P10415)
# Sequence (P10415 whole entry): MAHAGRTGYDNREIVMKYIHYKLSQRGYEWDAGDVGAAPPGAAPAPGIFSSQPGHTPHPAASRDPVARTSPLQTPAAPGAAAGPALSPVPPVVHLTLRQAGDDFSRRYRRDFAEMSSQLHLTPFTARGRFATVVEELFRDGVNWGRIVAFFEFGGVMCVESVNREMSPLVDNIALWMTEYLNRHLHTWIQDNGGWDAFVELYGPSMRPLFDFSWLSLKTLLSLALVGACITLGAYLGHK
# MEASUREMENT NOTES: Inhibition of Bcl-2 by the fluorescence polarisation technique
# Format: binding
# EXPERIMENTAL SETUP: fluorescence polarisation test; concentration that inhibits fluorescence polarisation by 50%; read-out: IC50 (nM) Bcl-2 FP
# Protocol: The fluorescence polarisation tests were carried out on microplates (384 wells). […] After incubation for 2 hours, the fluorescence polarisation is measured.
Where a name gives a salt, the structure may show the parent alone.
VALUE TYPE: IC50

MOLECULE	OBSERVED VALUE
O=C(c1cc(-c2cc3c(cc2C(=O)N2Cc4ccccc4C[C@H]2CN2CCOCC2)OCO3)n2c1CCCC2)N(c1ccc(O)cc1)c1ccc(OC(F)(F)F)cc1 [Example 5, hydrochloride]	51 nM
Cn1ccc2cc(N(C(=O)c3cc(-c4cc5c(cc4C(=O)N4Cc6ccccc6C[C@H]4CN4CCCOCC4)OCO5)n4c3CCCC4)c3ccc(O)cc3)ccc21 [Example 14, hydrochloride]	16 nM
Cc1ccc(N(C(=O)c2cc(-c3cc(Cl)ccc3C(=O)N3Cc4ccccc4C[C@H]3CN3CCOCC3)n3c2CCCC3)c2ccc(O)cc2)cc1Cl [Example 97, hydrochloride]	20 nM
C[C@H]1COC[C@H](C)N1C[C@@H]1Cc2ccccc2CN1C(=O)c1cc2c(cc1-c1cc(C(=O)N(c3ccc(O)cc3)c3ccc4c(ccn4C)c3)c3n1CCCC3)OCO2 [Example 17, hydrochloride]	81 nM
O=C(c1cc(-c2cc(Cl)ccc2C(=O)N2Cc3ccccc3C[C@H]2CN2CCOCC2)n2c1CCCC2)N(c1ccc(O)cc1)c1ccc(F)cc1F [Example 117, hydrochloride]	15 nM
O=C(c1cc(-c2cc3c(cc2C(=O)N2Cc4ccccc4C[C@H]2CN2CCOCC2)OCO3)n2c1CCCC2)N(c1ccc(O)cc1)c1ccc(O)cc1 [Example 6, hydrochloride]	15 nM
CN1CCN(C[C@@H]2Cc3ccccc3CN2C(=O)c2ccc(Cl)cc2-c2cc(C(=O)N(c3ccc(O)cc3)c3ccc4c(ccn4C)c3)c3n2CCCC3)CC1=O [Example 107, hydrochloride]	7 nM
O=C(c1cc(-c2cc3c(cc2C(=O)N2Cc4ccccc4C[C@H]2C[N+]2([O-])CCOCC2)OCO3)n2c1CCCC2)N(c1ccccc1)c1ccc(O)cc1	30 nM
Cn1ccc2cc(N(C(=O)c3cc(-c4cc(Cl)ccc4C(=O)N4Cc5ccccc5C[C@H]4CN4CCCOCC4)n4c3CCCC4)c3ccc(O)cc3)ccc21 [Example 46, hydrochloride]	21 nM
O=C(c1cc(-c2cc(F)ccc2C(=O)N2Cc3ccccc3C[C@H]2CN2CCOCC2)n2c1CC(O)CC2)N(c1ccccc1)c1ccc(O)cc1 (stereo partly drawn) [Example 100, hydrochloride]	22 nM
O=C(c1cc(-c2cc(Cl)ccc2C(=O)N2Cc3ccccc3C[C@H]2CN2CCOCC2)n2c1CCCC2)N(c1ccccc1)c1ccc(O)cc1 [Example 20, hydrochloride]	35 nM
Cn1ccc2cc(N(C(=O)c3cc(-c4cc5c(cc4C(=O)N4Cc6ccccc6C[C@H]4CN4CCOCC4)OCCO5)n4c3CCCC4)c3ccc(O)cc3)ccc21	15 nM
Cn1ncc2cc(N(C(=O)c3cc(-c4cc5c(cc4C(=O)N4Cc6ccccc6C[C@H]4CN4CCOCC4)OCO5)n4c3CCCC4)c3ccc(O)cc3)ccc21 [Example 94, hydrochloride]	3 nM
Cc1ccc(C(=O)N2Cc3ccccc3C[C@H]2CN2CCOCC2)c(-c2cc(C(=O)N(c3ccc(O)cc3)c3ccc4c(ccn4C)c3)c3n2CCCC3)c1 [Example 95, hydrochloride]	6 nM
CN(C)C[C@@H]1Cc2ccccc2CN1C(=O)c1ccc(Cl)cc1-c1cc(C(=O)N(c2ccc(O)cc2)c2ccc3c(ccn3C)c2)c2n1CCCC2 [Example 52, hydrochloride]	16 nM
O=C(c1cc(-c2cc(Cl)ccc2C(=O)N2Cc3ccccc3C[C@H]2CN2CCOCC2)n2c1CCCC2)N(c1ccc(O)cc1)c1cccc(Cl)c1 [Example 131, hydrochloride]	30 nM
COc1ccc(C(=O)N2Cc3ccccc3C[C@H]2CN2CCOCC2)c(-c2cc(C(=O)N(c3ccccc3)c3ccc(O)cc3)c3n2CCCC3)c1 [Example 112, hydrochloride]	9 nM
CN1CCc2cc(N(C(=O)c3cc(-c4cc(Cl)ccc4C(=O)N4Cc5ccccc5C[C@H]4CN4CCOCC4)n4ccccc34)c3ccc(O)cc3)ccc21 [Example 66, bis(hydrochloride)]	16 nM
CN1CCCc2cc(N(C(=O)c3cc(-c4cc(Cl)ccc4C(=O)N4Cc5ccccc5C[C@H]4CN4CCOCC4)n4c3CCCC4)c3ccc(O)cc3)ccc21 [Example 26, hydrochloride]	17 nM
COc1ccc(C(=O)N2Cc3ccccc3C[C@H]2CN2CCOCC2)c(-c2cc(C(=O)N(c3ccc(O)cc3)c3ccc4c(ccn4C)c3)c3n2CCCC3)c1 [Example 33, hydrochloride]	23 nM
O=C(c1cc(-c2cc3c(cc2C(=O)N2Cc4ccccc4C[C@H]2CN2CCN(CC(F)(F)F)CC2)OCO3)n2c1CCCC2)N(c1ccccc1)c1ccc(O)cc1 [Example 127, hydrochloride]	26 nM

====

# SYSTEM: Bcl-2 protein (Homo sapiens (Human))
# MEASUREMENT NOTES: Inhibition of Bcl-2 by the fluorescence polarisation technique
# Type: binding
# EXPERIMENTAL SETUP: fluorescence polarisation test; concentration that inhibits fluorescence polarisation by 50%; read-out: IC50 (nM) Bcl-2 FP
Where a name gives a salt, the structure may show the parent alone.
Classify: fulfilled when IC50 is strictly less than 30 nM; not fulfilled when IC50 is not.

COMPOUND	LABEL
Cn1ccc2cc(N(C(=O)c3cc(-c4cc(C(F)(F)F)ccc4C(=O)N4Cc5ccccc5C[C@H]4CN4CCOCC4)n4c3CCCC4)c3ccc(O)cc3)ccc21 [Example 47, hydrochloride]	not fulfilled
Cn1ccc2cc(N(C(=O)c3cc(-c4cc5c(cc4C(=O)N4Cc6ccccc6C[C@H]4CN4CCOCC4)OCCCO5)n4c3CCCC4)c3ccc(O)cc3)ccc21 [Example 32, hydrochloride]	not fulfilled
Cn1ccc2cc(N(C(=O)c3cc(-c4cc(Cl)ccc4C(=O)N4Cc5ccccc5C[C@H]4CN4CCOCC4)n4c3CCCC4)c3ccc(O)c(F)c3)ccc21 [Example 55, hydrochloride]	not fulfilled
Cn1ccc2cc(N(C(=O)c3cc(-c4cc(OC(F)(F)F)ccc4C(=O)N4Cc5ccccc5C[C@H]4CN4CCOCC4)n4c3CCCC4)c3ccc(O)cc3)ccc21 [Example 48, hydrochloride]	not fulfilled
CN1CCc2cc(N(C(=O)c3cc(-c4cc(Cl)ccc4C(=O)N4Cc5ccccc5C[C@H]4CN4CCOCC4)n4c3CCCC4)c3ccc(O)cc3)ccc21 [Example 23, bis(hydrochloride)]	fulfilled
CN1CCc2cc(N(C(=O)c3cc(-c4cc(Br)ccc4C(=O)N4Cc5ccccc5C[C@H]4CN4CCOCC4)n4c3CCCC4)c3ccc(O)cc3)ccc21 [Example 19, hydrochloride]	fulfilled
CN1CCOc2cc(N(C(=O)c3cc(-c4cc5c(cc4C(=O)N4Cc6ccccc6C[C@H]4CN4CCOCC4)OCCO5)n4c3CCCC4)c3ccc(O)cc3)ccc21 [Example 41, hydrochloride]	fulfilled
N#Cc1ccccc1N(C(=O)c1cc(-c2cc(Cl)ccc2C(=O)N2Cc3ccccc3C[C@H]2CN2CCOCC2)n2c1CCCC2)c1ccc(O)cc1 [Example 134, hydrochloride]	not fulfilled
O=C(c1cc(-c2cc(Cl)ccc2C(=O)N2Cc3ccccc3C[C@H]2CN2CCOCC2)n2c1CCCC2)N(c1ccc(O)cc1)c1ccc(F)c(F)c1 [Example 118, hydrochloride]	fulfilled
Cn1ccc2cc(N(C(=O)c3cc(-c4cc(Cl)ccc4C(=O)N4Cc5ccccc5C[C@H]4CN4CCOCC4)n4c3CCCC4)c3ccc(O)cc3)ccc21 [Example 22, hydrochloride]	fulfilled
